Overview of recorded GI50 for various compounds
tested on: MALME-3M melanoma; assay: NCI tumour cell line growth inhibition, 48 h

// known answers, use as guide
COc1ccc(Nc2c3ccccc3nc3ccccc23)cc1; 1830 nM
CC(=Nc1ccccc1)C1=C(O)C(Cc2ccccc2)NC1=O (stereo not drawn); 18 nM

With those in mind, consider the next compound.
Ask: Give GI50 for COc1cc2c(cc1C)NC(=O)/C2=C\c1cccc(Oc2ccccc2)c1
Reply: 26100 nM

###

Catalogue of TGI readings, one per entry.
system: IGROV1 ovarian; test: NCI tumour cell line growth inhibition, 48 h

As a guide, the following entries are already answered.
COc1cc(C2C(C(=O)O)=C(COC(C)=O)Oc3cc4c(cc32)OCO4)cc(OC)c1OC (configuration not stated); > 100 µM
N=C(N)SCc1ccc(Cl)cc1Cl (tested in a mixture with another compound); 42.9 µM
COC(=O)CCCC(=O)O; > 100 µM
C=C(Br)N(CC)CC; > 100 µM
O=C(Cc1nc2ccccc2s1)Nc1cccc(C(F)(F)F)c1; 25.9 µM
CCOC(=O)Cc1nc2sc(S(N)(=O)=O)nn2c1Br; 90.8 µM
Brc1ccc2c([C@H]3CN[C@@H](c4c[nH]c5cc(Br)ccc45)CN3)c[nH]c2c1; 8.2 µM
c1ccc2c(c1)ncn2C1CCCCO1 (configuration not stated); > 100 µM

Ask: Please tell me the measured TGI for COc1ccc(OC)c(/C=C(/C)[N+](=O)[O-])c1 ; system: IGROV1 ovarian.
Reply: 8.39 µM

Ask: Quote IGROV1 ovarian TGI for entry Fc1ccccc1C1CC(c2ccc3ccccc3c2)=Nc2ccccc2S1 (configuration not stated) .
Reply: > 100 µM

Ask: Specify the recorded TGI for CCc1cccc(C(C)C)c1N1C(=O)C(=O)C(c2nc3ccccc3s2)C(=O)C1=O , system: IGROV1 ovarian.
Reply: > 50 µM

Ask: For IGROV1 ovarian, give TGI of the listed compound: C[C@@H](CO)[C@@H]1CCC=C2CC[C@]3(C)[C@H](CC[C@@H]4[C@@]5(C)CCCNC(C)(C)[C@@H]5CC[C@]43C)[C@H]21
Reply: 3.41 µM

Ask: Fill in: TGI on IGROV1 ovarian, entry COC(=O)/C=C/c1ccc2c(c1)CC1(C2)Cc2cc3c(cc2C1=O)CCC3 (configuration not stated)
Reply: > 100 µM

Ask: Quote IGROV1 ovarian TGI for entry COC(=O)C1CCC(=O)N1C(c1ccc(OC)cc1)c1ccc(OC)cc1 (configuration not stated) .
Reply: > 100 µM

Ask: # return TGI of O=C1CCC(=O)N1n1c(Cc2ccc(Cl)cc2)n[nH]c1=O (system: IGROV1 ovarian)
Reply: > 100 µM

Ask: Report its TGI with IGROV1 ovarian as the test system: O=c1[nH]c(=O)n(C2CC(O)C(CO)O2)cc1C1=NC1 (configuration not stated)
Reply: > 100 µM

Ask: // fetch TGI for c1csc(-c2cc(-c3cccs3)c(-c3cccs3)s2)c1 ; system: IGROV1 ovarian
Reply: > 100 µM

Ask: Provide TGI, recorded with IGROV1 ovarian, of O=C1C2C3C=CC(C2C(=O)N1COP(=O)(O)O)C1C2C(=O)N(COP(=O)(O)O)C(=O)C2C31 (configuration not stated)
Reply: > 100 µM

Ask: Name the recorded TGI of CN1CCN(c2ccc3nc(-c4ccc5nc(-c6ccc(OCCC(C)(C)C)cc6)[nH]c5c4)[nH]c3c2)CC1 , assay system IGROV1 ovarian.
Reply: 31.6 µM

Ask: Report TGI on IGROV1 ovarian for this entry: CC(C)CCN=C(N)c1ccc(N2CCN(c3ccc(C(N)=NCCC(C)C)cc3)CC2)cc1
Reply: 40.3 µM

Ask: Print IGROV1 ovarian TGI for Cn1c2ccccc2c2c(=O)[nH]c(=O)[nH]c21 .
Reply: > 100 µM

Ask: With IGROV1 ovarian as the test system, provide measured TGI for this compound: Cc1occc1C(=S)Nc1ccc(Cl)c(C(=O)OC(C)C2CC2)c1 (configuration not stated)
Reply: 35.2 µM
